Test: qHTS Validation assay for Inhibitors of Plasmodium falciparum Dd2 growth in vitro; note: nearly all actives have a fitted effect of over 70% in size
Conditions: P. falciparum Dd2 in RBCs, SYBR Green growth, 72 h; series mostly up to 28.7 µM
Out of some 4,100 compounds screened, about 1,600 (39%) were called active. Not shown: some 25% with an inconclusive outcome. Calls come from the whole dose curve; as a rule, active = well fitted inhibition curve with a large enough effect; inconclusive = small, poorly fitted or top-dose-only effect; inactive = no such curve, though single readings can be large or run the other way. The list shows a part of the results.
Outcome codes: active, inactive

| COMPOUND | LABEL_VALUE |
| --- | --- |
| COc1cccc(CCC(=O)NC2CCN(C(=O)c3cc4c(=O)[nH]c(C)cn4n3)CC2)c1 | inactive |
| CCCC(O)c1nc2ccccc2n1CCCCOc1ccc(OC)cc1 (stereo not given) | active |
| COc1cccc(Nc2ccc3c(n2)C(C)(C(=O)NC2CCN(C)CC2)CN(C)C3)c1 (stereo not given) | active |
| COc1cccc(Nc2ccc3c(n2)C(C)(C(=O)NCC2CC2)CN(C)C3)c1 (stereo not given) | active |
| CN1Cc2ccc(Nc3ccccc3)nc2C(C)(C(=O)NCc2ccc3c(c2)OCO3)C1 (stereo not given) | active |
